molecular target: Ubiquitin-conjugating enzyme E2 N (Homo sapiens); assay: UBC13 polyubiquitination inhibitor potency, dose response, biochemical, TR-FRET, reconfirmation (AID 493182)
experimental_endpoint: IC50

The value of IC50 measured for the compound `CCCCCCCCCCC[N+](C)(C)CC/C=C1/c2ccccc2Sc2ccc(Cl)cc21` turned out to be 4.77 µM

The value of IC50 measured for the compound C#CCOCCOCCOCCNc1nc(N2CCN(C(=O)C([C@@H](C)O)n3cc([C@@H](N)CCCCN)nn3)CC2)nc(N2CCN(C(=O)[C@H](CCCCN)n3cc(CN)nn3)CC2)n1 (stereo partly drawn) turned out to be 3.71 µM

The value of IC50 measured for the compound `CCC[C@@H](CN1CCC[C@H]1CN1C(N)=NC[C@H]1CC(C)C)N1C[C@@H](Cc2ccccc2)N(CCc2ccc(Cl)c(Cl)c2)C1=N` turned out to be 12.6 µM
